From: paper PMC7041978

Tested on: human foreskin fibroblasts (HFF)
Test: Host cell cytotoxicity assay
Type: cell-based
Details: 10 µM compounds, HFF cells, 48 hr
observed property: Host cell inhibition (%)
Please give a number only; it is taken to be in %.

# compound, Host cell inhibition (%)
data = [
    ("c1c2c(cc3c1OCO3)-c1cc3ccc4c(c3c[n+]1CC2)OCO4 [Coptisine Chloride]", 6.4),
    ("COc1ccc2cc3[n+](cc2c1OC)CCc1cc2c(cc1-3)OCO2 [Berberine Chloride]", "−3.0"),
    ("CC(C)=CC[C@H](O)C1=CC(=O)c2c(O)ccc(O)c2C1=O", "−0.3"),
    ("C[C@H]1CC[C@@]2(OC1)O[C@H]1C[C@H]3[C@@H]4CC[C@@H]5C[C@@H](O[C@@H]6O[C@H](CO)[C@H](O)[C@H](O)[C@H]6O[C@@H]6O[C@H](CO)[C@@H](O)[C@H](O)[C@H]6O)CC[C@]5(C)[C@H]4CC[C@]3(C)[C@H]1[C@@H]2C", 98.3),
    ("CC(C)=CC[C@@H](O)C1=CC(=O)c2c(O)ccc(O)c2C1=O", 43.4),
]

Attention now turns to another entry.
Incoming: Request - read-out Host cell inhibition (%) | tested on human foreskin fibroblasts (HFF) | compound O=c1cc(-c2ccccc2)oc2cc(O)c(O)c(O)c12
Outgoing: 3.3
